All figures here come from ChEMBL document CHEMBL5661972.

test: Selectivity ratio of IC50 for cytotoxicity against human HDF cells to IC50 for anti-proliferative activity against human HeLa cells; format: toxicity, cell-based; details: HDF cells versus HeLa cells, read-out: Ratio IC50
result_type: selectivity ratio

Supply reported selectivity ratio belonging to this compound: COc1cc2ncn(-c3cc(OCc4ccccc4C(F)(F)F)c(C(N)=O)s3)c2cc1OC [GW843682X]
> 10

* * *

biological target: Platelet-derived growth factor receptor beta (Homo sapiens, UniProt P09619)
Sequence (P09619 whole entry): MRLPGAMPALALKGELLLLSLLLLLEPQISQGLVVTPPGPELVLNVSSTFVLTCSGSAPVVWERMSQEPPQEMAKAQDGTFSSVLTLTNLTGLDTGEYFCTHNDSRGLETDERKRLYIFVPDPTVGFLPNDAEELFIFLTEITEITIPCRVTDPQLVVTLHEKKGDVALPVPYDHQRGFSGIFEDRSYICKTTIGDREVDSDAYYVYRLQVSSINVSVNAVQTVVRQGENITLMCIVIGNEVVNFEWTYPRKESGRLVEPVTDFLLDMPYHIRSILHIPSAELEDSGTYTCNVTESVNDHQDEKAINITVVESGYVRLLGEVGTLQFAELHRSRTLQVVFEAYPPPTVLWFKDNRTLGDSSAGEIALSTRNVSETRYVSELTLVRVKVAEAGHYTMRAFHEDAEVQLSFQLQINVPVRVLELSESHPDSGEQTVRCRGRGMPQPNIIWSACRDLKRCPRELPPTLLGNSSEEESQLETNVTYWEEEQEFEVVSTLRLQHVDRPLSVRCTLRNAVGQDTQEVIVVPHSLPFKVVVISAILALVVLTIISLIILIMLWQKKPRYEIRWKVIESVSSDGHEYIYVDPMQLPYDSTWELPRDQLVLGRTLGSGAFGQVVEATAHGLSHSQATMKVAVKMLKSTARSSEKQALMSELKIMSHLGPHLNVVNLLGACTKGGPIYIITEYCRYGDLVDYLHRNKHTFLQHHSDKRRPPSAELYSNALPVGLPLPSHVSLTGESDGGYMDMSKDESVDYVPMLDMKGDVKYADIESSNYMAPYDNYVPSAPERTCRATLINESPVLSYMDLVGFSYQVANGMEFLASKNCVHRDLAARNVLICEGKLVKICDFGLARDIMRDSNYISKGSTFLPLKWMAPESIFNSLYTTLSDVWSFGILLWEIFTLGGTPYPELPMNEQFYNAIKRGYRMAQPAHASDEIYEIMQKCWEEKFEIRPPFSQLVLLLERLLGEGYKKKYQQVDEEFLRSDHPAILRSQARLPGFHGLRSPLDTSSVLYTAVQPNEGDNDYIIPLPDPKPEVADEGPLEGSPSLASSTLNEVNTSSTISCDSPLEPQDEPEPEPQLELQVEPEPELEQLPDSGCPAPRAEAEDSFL
result_type: IC50 (nM)
Provide the reading as a plain figure in nM.

Retrieve IC50 on Platelet-derived growth factor receptor beta (Homo sapiens, UniProt P09619); query COc1cc2ncn(-c3cc(OCc4ccccc4C(F)(F)F)c(C(N)=O)s3)c2cc1OC [GW843682X]
160

* * *

molecular target: Vascular endothelial growth factor receptor 2 (Homo sapiens, UniProt P35968); experiment: Inhibition of VEGFR2 (unknown origin)
Sequence (P35968 whole entry): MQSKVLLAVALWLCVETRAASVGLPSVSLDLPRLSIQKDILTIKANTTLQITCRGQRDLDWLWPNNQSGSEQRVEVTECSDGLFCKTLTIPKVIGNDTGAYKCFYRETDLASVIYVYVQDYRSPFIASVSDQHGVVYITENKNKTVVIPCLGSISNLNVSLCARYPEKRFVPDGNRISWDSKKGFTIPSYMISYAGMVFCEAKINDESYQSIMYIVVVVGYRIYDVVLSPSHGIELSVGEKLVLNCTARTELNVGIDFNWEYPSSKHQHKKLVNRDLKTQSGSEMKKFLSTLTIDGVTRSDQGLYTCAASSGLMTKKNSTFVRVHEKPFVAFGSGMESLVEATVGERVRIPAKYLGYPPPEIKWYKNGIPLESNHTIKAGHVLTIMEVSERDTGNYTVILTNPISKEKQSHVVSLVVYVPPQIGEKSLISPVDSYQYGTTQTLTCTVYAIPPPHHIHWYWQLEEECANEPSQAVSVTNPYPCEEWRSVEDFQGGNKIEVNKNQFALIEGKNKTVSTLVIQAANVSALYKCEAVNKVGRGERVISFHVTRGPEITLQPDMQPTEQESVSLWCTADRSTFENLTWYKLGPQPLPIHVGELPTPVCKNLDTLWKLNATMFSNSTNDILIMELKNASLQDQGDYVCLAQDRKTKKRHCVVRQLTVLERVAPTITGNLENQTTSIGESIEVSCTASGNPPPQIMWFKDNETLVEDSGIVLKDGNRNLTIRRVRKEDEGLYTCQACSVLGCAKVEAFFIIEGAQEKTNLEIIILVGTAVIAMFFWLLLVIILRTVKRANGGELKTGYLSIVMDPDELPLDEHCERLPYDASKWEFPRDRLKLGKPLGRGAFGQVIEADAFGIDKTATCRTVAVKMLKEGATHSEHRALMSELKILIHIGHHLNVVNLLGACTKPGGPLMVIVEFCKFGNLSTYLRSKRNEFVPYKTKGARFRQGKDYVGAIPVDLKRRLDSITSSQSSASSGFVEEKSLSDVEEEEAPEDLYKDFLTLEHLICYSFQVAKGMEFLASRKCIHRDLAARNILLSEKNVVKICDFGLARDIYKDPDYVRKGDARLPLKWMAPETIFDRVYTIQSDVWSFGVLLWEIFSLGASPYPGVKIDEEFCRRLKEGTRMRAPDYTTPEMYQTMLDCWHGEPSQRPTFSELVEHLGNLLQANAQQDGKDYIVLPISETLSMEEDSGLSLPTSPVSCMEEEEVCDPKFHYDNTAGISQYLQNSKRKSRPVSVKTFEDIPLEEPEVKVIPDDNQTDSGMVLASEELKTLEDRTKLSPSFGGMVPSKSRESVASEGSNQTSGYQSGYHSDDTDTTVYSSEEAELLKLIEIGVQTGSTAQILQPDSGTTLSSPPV
result_type: pIC50
Would you please state pIC50, meaning minus log10 of the concentration in mol/L, as a bare number?

Supply reported pIC50 belonging to this compound: COc1cc2ncn(-c3cc(OCc4ccccc4C(F)(F)F)c(C(N)=O)s3)c2cc1OC [GW843682X]
6.44

* * *

assay: Selectivity ratio of IC50 for cytotoxicity against human HDF cells to IC50 for antiproliferative activity against human NCI-H460 cells; format: toxicity, cell-based; conditions: HDF cells versus NCI-H460 cells, read-out: Ratio IC50
result_type: selectivity ratio

Supply reported selectivity ratio belonging to this compound: COc1cc2ncn(-c3cc(OCc4ccccc4C(F)(F)F)c(C(N)=O)s3)c2cc1OC [GW843682X]
> 10

* * *

assay: Selectivity ratio of IC50 for cytotoxicity against human HDF cells to IC50 for antiproliferative activity against human RKO cells; assay type: toxicity, cell-based; details: HDF cells versus RKO cells, read-out: Ratio IC50
result_type: selectivity ratio

Supply reported selectivity ratio belonging to this compound: COc1cc2ncn(-c3cc(OCc4ccccc4C(F)(F)F)c(C(N)=O)s3)c2cc1OC [GW843682X]
> 10

* * *

experiment: Cytotoxicity against human HDF cells assessed as outgrowth of cells at 3.3 micromol/L incubated for 72 hrs by methylene blue staining based analysis relative to control; assay type: toxicity, cell-based; conditions: HDF cells (NHDF, human dermal fibroblasts), dose 3.3 µmol/L, read-out: Activity
result_type: viability at 72 h, 3.3 µM

Supply reported viability at 72 h, 3.3 µM belonging to this compound: COc1cc2ncn(-c3cc(OCc4ccccc4C(F)(F)F)c(C(N)=O)s3)c2cc1OC [GW843682X]
~30%

* * *

tested on: BT-474; assay: Antiproliferative activity against human BT-474 cells assessed as inhibition of cell growth; format: functional, cell-based
result_type: pIC50
Would you please state pIC50, meaning minus log10 of the concentration in mol/L, as a bare number?

Supply reported pIC50 belonging to this molecule: COc1cc2ncn(-c3cc(OCc4ccccc4C(F)(F)F)c(C(N)=O)s3)c2cc1OC [GW843682X]
6.24

* * *

test system: MES-SA; experiment: Antiproliferative activity against DX5 resistant human MES-SA cells assessed as inhibition of cell growth; type: functional, cell-based
result_type: pIC50
Would you please state pIC50, meaning minus log10 of the concentration in mol/L, as a bare number?

Supply reported pIC50 belonging to this molecule: COc1cc2ncn(-c3cc(OCc4ccccc4C(F)(F)F)c(C(N)=O)s3)c2cc1OC [GW843682X]
6.68

* * *

assay: Selectivity ratio of IC50 for cytotoxicity against human HDF cells to IC50 for antiproliferative activity against human A549 cells; assay type: toxicity, cell-based; settings: HDF cells versus A549 cells, read-out: Ratio IC50
result_type: selectivity ratio

Supply reported selectivity ratio belonging to this compound: COc1cc2ncn(-c3cc(OCc4ccccc4C(F)(F)F)c(C(N)=O)s3)c2cc1OC [GW843682X]
> 10

* * *

test: Selectivity ratio of IC50 for cytotoxicity against human HDF cells to IC50 for antiproliferative activity against human PC-3 cells; format: toxicity, cell-based; conditions: HDF cells versus PC-3 cells
result_type: selectivity ratio
Please respond with just the number, no unit label.

Supply reported selectivity ratio belonging to this molecule: COc1cc2ncn(-c3cc(OCc4ccccc4C(F)(F)F)c(C(N)=O)s3)c2cc1OC [GW843682X]
0.9

* * *

assay: Selectivity ratio of IC50 for cytotoxicity against human HDF cells to IC50 for antiproliferative activity against human BT-474 cells; type: toxicity, cell-based; conditions: HDF cells versus BT-474 cells, read-out: Ratio IC50
result_type: selectivity ratio

Supply reported selectivity ratio belonging to this compound: COc1cc2ncn(-c3cc(OCc4ccccc4C(F)(F)F)c(C(N)=O)s3)c2cc1OC [GW843682X]
> 10

* * *

target: Mitogen-activated protein kinase 14 (Homo sapiens); assay: Inhibition of p38alpha (unknown origin)
Sequence (Q16539 whole entry): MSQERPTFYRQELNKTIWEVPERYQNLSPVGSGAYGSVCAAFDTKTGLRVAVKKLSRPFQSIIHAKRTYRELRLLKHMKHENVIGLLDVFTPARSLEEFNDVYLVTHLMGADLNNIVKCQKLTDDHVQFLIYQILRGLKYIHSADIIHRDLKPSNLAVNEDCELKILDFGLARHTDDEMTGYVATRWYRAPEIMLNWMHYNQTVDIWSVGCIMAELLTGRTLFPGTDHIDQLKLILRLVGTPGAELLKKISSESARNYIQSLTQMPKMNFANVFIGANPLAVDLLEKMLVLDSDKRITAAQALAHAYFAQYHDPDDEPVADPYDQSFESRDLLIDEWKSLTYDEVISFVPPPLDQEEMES
pIC50: −log10 of the molar value.
result_type: pIC50

Supply reported pIC50 belonging to this molecule: COc1cc2ncn(-c3cc(OCc4ccccc4C(F)(F)F)c(C(N)=O)s3)c2cc1OC [GW843682X]
< 5.00

* * *

target: Serine/threonine-protein kinase PLK1 (Homo sapiens); experiment: Inhibition of human PLK1 expressed in baculovirus infected in Trichoplusia ni cells using Biotin-Ahx-SFNDTLDFD as substrate in presence of ATP by TopCount scintillation proximity assay
Sequence (P53350 whole entry): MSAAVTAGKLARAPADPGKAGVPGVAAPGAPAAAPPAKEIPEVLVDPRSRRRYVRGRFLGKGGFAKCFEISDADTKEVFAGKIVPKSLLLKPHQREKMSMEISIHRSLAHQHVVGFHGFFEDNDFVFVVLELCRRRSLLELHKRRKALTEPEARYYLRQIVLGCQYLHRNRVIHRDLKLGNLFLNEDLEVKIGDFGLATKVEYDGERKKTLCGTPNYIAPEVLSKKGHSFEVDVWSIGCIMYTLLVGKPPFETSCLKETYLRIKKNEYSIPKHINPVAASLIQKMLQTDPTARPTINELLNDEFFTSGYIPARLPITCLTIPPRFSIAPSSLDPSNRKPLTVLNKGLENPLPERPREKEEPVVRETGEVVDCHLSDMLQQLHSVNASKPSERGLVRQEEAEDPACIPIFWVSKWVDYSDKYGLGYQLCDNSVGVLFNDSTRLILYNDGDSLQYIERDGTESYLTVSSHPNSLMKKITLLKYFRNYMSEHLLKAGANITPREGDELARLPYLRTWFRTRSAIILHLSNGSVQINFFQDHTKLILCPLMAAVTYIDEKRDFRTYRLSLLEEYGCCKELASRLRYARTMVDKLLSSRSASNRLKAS
result_type: IC50 (nM)
Provide the reading as a plain figure in nM.

Retrieve IC50 on Serine/threonine-protein kinase PLK1 (Homo sapiens); query COc1cc2ncn(-c3cc(OCc4ccccc4C(F)(F)F)c(C(N)=O)s3)c2cc1OC [GW843682X]
2.2

* * *

biological target: Mitogen-activated protein kinase 11 (Homo sapiens, UniProt Q15759); experiment: Inhibition of p38beta (unknown origin)
Sequence (Q15759 whole entry): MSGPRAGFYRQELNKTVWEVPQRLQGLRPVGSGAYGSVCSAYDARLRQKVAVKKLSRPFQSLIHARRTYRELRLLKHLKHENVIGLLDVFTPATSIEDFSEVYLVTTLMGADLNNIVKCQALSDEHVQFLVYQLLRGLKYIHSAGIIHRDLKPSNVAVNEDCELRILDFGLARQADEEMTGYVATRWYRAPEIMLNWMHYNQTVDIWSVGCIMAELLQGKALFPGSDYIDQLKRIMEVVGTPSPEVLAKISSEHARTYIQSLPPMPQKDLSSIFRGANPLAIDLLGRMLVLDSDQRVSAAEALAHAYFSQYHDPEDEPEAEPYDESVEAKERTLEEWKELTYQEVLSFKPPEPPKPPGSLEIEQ
result_type: IC50

Supply reported IC50 belonging to this compound: COc1cc2ncn(-c3cc(OCc4ccccc4C(F)(F)F)c(C(N)=O)s3)c2cc1OC [GW843682X]
> 10 µM

* * *

assay: Cytotoxicity against human HDF cells assessed as inhibition of cell growth; type: toxicity, cell-based; conditions: HDF cells (NHDF, human dermal fibroblasts)
result_type: pIC50
Would you please state pIC50, meaning minus log10 of the concentration in mol/L, as a bare number?

Supply reported pIC50 belonging to this molecule: COc1cc2ncn(-c3cc(OCc4ccccc4C(F)(F)F)c(C(N)=O)s3)c2cc1OC [GW843682X]
5.21

* * *

assay: Selectivity ratio of IC50 for cytotoxicity against human HDF cells to IC50 for antiproliferative activity against human HN5 cells; type: toxicity, cell-based; settings: HDF cells versus HN5 cells
result_type: selectivity ratio
Please respond with just the number, no unit label.

Supply reported selectivity ratio belonging to this compound: COc1cc2ncn(-c3cc(OCc4ccccc4C(F)(F)F)c(C(N)=O)s3)c2cc1OC [GW843682X]
9

* * *

molecular target: Serine/threonine-protein kinase PLK3 (Homo sapiens, UniProt Q9H4B4); test: Inhibition of human PLK3 expressed in baculovirus infected in Trichoplusia ni cells using Biotin-Ahx-SFNDTLDFD as substrate in presence of ATP by TopCount scintillation proximity assay; set-up: species or system Trichoplusia ni cell
Sequence (Q9H4B4 whole entry): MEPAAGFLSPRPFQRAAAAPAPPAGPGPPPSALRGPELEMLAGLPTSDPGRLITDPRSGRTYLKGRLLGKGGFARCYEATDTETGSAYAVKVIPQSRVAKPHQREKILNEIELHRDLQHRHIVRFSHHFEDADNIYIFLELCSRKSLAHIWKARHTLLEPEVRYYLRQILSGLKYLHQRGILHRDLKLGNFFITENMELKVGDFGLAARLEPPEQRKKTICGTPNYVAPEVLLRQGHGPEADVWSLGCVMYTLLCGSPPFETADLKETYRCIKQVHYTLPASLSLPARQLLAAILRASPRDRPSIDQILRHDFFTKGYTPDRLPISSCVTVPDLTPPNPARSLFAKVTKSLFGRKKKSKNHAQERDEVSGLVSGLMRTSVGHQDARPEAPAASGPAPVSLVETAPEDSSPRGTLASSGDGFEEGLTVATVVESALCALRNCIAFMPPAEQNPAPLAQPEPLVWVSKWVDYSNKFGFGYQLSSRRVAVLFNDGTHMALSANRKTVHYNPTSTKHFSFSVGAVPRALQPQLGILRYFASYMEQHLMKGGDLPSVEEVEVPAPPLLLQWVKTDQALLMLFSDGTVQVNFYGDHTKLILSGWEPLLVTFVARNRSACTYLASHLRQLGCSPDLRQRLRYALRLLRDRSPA
result_type: pIC50
Would you please state pIC50, meaning minus log10 of the concentration in mol/L, as a bare number?

Supply reported pIC50 belonging to this molecule: COc1cc2ncn(-c3cc(OCc4ccccc4C(F)(F)F)c(C(N)=O)s3)c2cc1OC [GW843682X]
8.04

* * *

assay: Selectivity ratio of IC50 for cytotoxicity against human HDF cells to IC50 for antiproliferative activity against human NCI-N87 cells; type: toxicity, cell-based; conditions: HDF cells versus NCI-N87 cells, read-out: Ratio IC50
result_type: selectivity ratio

Supply reported selectivity ratio belonging to this compound: COc1cc2ncn(-c3cc(OCc4ccccc4C(F)(F)F)c(C(N)=O)s3)c2cc1OC [GW843682X]
> 10
